pIC50: −log10 of the molar value.
Below are pIC50 values recorded for 5-hydroxytryptamine receptor 1A (Rattus norvegicus, UniProt P19327).

Smiles entry | pIC50
CN(CCCCN1CCN(c2nsc3ccccc23)CC1)C(=O)c1ccccc1.Cl | 8.85
CCc1cc(Cl)c(OC)c(C(=O)NCCCCN2CCN(c3nsc4ccccc34)CC2)c1O.Cl | 7.16
Cl.Nc1ccc([N+](=O)[O-])cc1C(=O)NCCCCN1CCN(c2nsc3ccccc23)CC1 | 7.70
CC(C)[C@@H](Nc1ccccc1C(=O)NCCCCN1CCN(c2nsc3ccccc23)CC1)C(=O)O.Cl | 8.07
Cl.Nc1ccc(Cl)cc1C(=O)NCCCCN1CCN(c2nsc3ccccc23)CC1 | 8.03
CCc1cc(Cl)c(OC)c(C(=O)NCCCCN2CCN(c3nsc4ccccc34)CC2)c1OC.Cl | 6.74
Cl.O=C(NCCCCN1CCN(c2nsc3ccccc23)CC1)c1ccc(Cl)cc1 | 7.82
CC(=O)Nc1ccccc1C(=O)NCCCCN1CCN(c2nsc3ccccc23)CC1.Cl | 8.28
Cl.Nc1cc(F)ccc1C(=O)NCCCCN1CCN(c2nsc3ccccc23)CC1 | 8.38

====

- Target desc: Serotonin 2 (5-HT2) receptor (Rattus norvegicus, UniProt P30994+P08909+P14842)
- Assay overview: In vitro inhibitory activity against [3H]ketanserin binding to 5-hydroxytryptamine 2 receptor
- Assay type: protein assay
Observation type: log10 IC50 (log10 of the value in nM)

Smiles entry | log10 IC50
CC(=O)Nc1ccc(C(=O)NCCCCN2CCN(c3nsc4ccccc34)CC2)cc1.Cl | 1.71
Cl.NNc1ccccc1C(=O)NCCCCN1CCN(c2nsc3ccccc23)CC1 | 0.38
Cl.Nc1ccc(Cl)cc1C(=O)NCCCCN1CCN(c2nsc3ccccc23)CC1 | 0.20
Cl.Nc1ccc(F)cc1C(=O)NCCCCN1CCN(c2nsc3ccccc23)CC1 | 0.36
COc1ccc(Br)c(O)c1C(=O)NCCCCN1CCN(c2nsc3ccccc23)CC1.Cl | 1.18
Cl.[N-]=[N+]=Nc1ccccc1C(=O)NCCCCN1CCN(c2nsc3ccccc23)CC1 | 0.26
CC(C)[C@@H](Nc1ccccc1C(=O)NCCCCN1CCN(c2nsc3ccccc23)CC1)C(=O)O.Cl | 0.20
Cl.Nc1cccc(F)c1C(=O)NCCCCN1CCN(c2nsc3ccccc23)CC1 | 0.20
Cl.O=C(NCCCCN1CCN(c2nsc3ccccc23)CC1)c1ccc(/N=N/c2ccccc2)cc1 | 1.41
CNc1ccccc1C(=O)NCCCCN1CCN(c2nsc3ccccc23)CC1.Cl | 1.08
CN(CCCCN1CCN(c2nsc3ccccc23)CC1)C(=O)c1ccccc1.Cl | 0.59
Cl.O=C(NCCCCN1CCN(c2nsc3ccccc23)CC1)c1ccccc1 | 0.32
CC(=O)Nc1ccccc1C(=O)NCCCCN1CCN(c2nsc3ccccc23)CC1.Cl | 0.30
Cl.O=C(NCCCCN1CCN(c2nsc3ccccc23)CC1)c1ccc(Cl)cc1 | 0.75
CC(C)(C)OC(=O)Nc1cccc(C(=O)NCCCCN2CCN(c3nsc4ccccc34)CC2)c1.Cl | 0.11
CC(C)[C@H](Nc1ccccc1C(=O)NCCCCN1CCN(c2nsc3ccccc23)CC1)C(=O)O.Cl | 0.43
Cl.O=C(NCCCCN1CCN(c2nsc3ccccc23)CC1)c1cc(Cl)cc(Cl)c1 | 0.23
CC(C)(C)OC(=O)Nc1ccc(C(=O)NCCCCN2CCN(c3nsc4ccccc34)CC2)cc1.Cl | -0.64
CCc1cc(Cl)c(OC)c(C(=O)NCCCCN2CCN(c3nsc4ccccc34)CC2)c1OC.Cl | 1.48
Cl.O=C(NCCCCN1CCN(c2nsc3ccccc23)CC1)c1ccc(C(F)(F)F)cc1 | 0.18

====

- Test system: Mus musculus
- Assay overview: In vivo effective dose required to antagonize the apomorphine induced climbing response in mice administered intraperitoneally.
- Format: functional
- Experimental setup: ip
The entries below are paired with their reported ED50.
Observation type: ED50 (mg/kg)

Smiles entry | Inequality operator | Numeric result
Cl.NNc1ccccc1C(=O)NCCCCN1CCN(c2nsc3ccccc23)CC1 | = | 10.8
COc1ccc(C(=O)NCCCCN2CCN(c3nsc4ccccc34)CC2)cc1.Cl | = | 2.4
CCc1cc(Cl)c(OC)c(C(=O)NCCCCN2CCN(c3nsc4ccccc34)CC2)c1O.Cl | > | 25
CC(C)[C@@H](Nc1ccccc1C(=O)NCCCCN1CCN(c2nsc3ccccc23)CC1)C(=O)O.Cl | > | 25
Cl.Nc1cccc(F)c1C(=O)NCCCCN1CCN(c2nsc3ccccc23)CC1 | = | 7.8

====

ED50: recorded values
- Tested on: Mus musculus
- Assay overview: In vivo effective dose required to antagonize the apomorphine induced climbing response in mice administered intraperitoneally.
- Assay type: functional
- Experimental setup: ip
Observation type: ED50 (mg/kg)

Smiles entry | Observation type | Inequality operator | Numeric result
CN(CCCCN1CCN(c2nsc3ccccc23)CC1)C(=O)c1ccccc1N.Cl | ED50 | > | 12
Cl.O=C(NCCCCN1CCN(c2nsc3ccccc23)CC1)c1ccccc1 | ED50 | = | 1.1
CCc1cc(Cl)c(OC)c(C(=O)NCCCCN2CCN(c3nsc4ccccc34)CC2)c1OC.Cl | ED50 | = | 26
Cl.Nc1cc(C(F)(F)F)ccc1C(=O)NCCCCN1CCN(c2nsc3ccccc23)CC1 | ED50 | = | 6.9
COc1ccc(Br)c(OC)c1C(=O)NCCCCN1CCN(c2nsc3ccccc23)CC1.Cl | ED50 | > | 25

====

- System: Mus musculus
- Assay overview: In vivo effective dose required to antagonize the apomorphine induced climbing response in mice administered intraperitoneally.
- Format: functional
- Experimental setup: ip
Observation type: ED50 (mg/kg)

Smiles entry | Observation type | Units | Inequality operator | Numeric result
COc1ccc(N)c(C(=O)NCCCCN2CCN(c3nsc4ccccc34)CC2)c1.Cl | ED50 | mg/kg | = | 2.1
Cl.O=C(NCCCCN1CCN(c2nsc3ccccc23)CC1)c1ccc(/N=N/c2ccccc2)cc1 | ED50 | mg/kg | > | 25
CN(CCCCN1CCN(c2nsc3ccccc23)CC1)C(=O)c1ccccc1.Cl | ED50 | mg/kg | = | 10
Cl.Nc1cccc(Cl)c1C(=O)NCCCCN1CCN(c2nsc3ccccc23)CC1 | ED50 | mg/kg | > | 25
Cl.Nc1ccc(F)cc1C(=O)NCCCCN1CCN(c2nsc3ccccc23)CC1 | ED50 | mg/kg | = | 2.2
Cl.Nc1c(F)cccc1C(=O)NCCCCN1CCN(c2nsc3ccccc23)CC1 | ED50 | mg/kg | = | 0.9
CC(=O)Nc1ccccc1C(=O)NCCCCN1CCN(c2nsc3ccccc23)CC1.Cl | ED50 | mg/kg | = | 4.1
Cc1cccc(C(=O)NCCCCN2CCN(c3nsc4ccccc34)CC2)c1N.Cl | ED50 | mg/kg | = | 5.4
Cl.O=C(NCCCCN1CCN(c2nsc3ccccc23)CC1)c1ccccc1O | ED50 | mg/kg | = | 1
Cl.O=C(NCCCCN1CCN(c2nsc3ccccc23)CC1)c1ccc(C(F)(F)F)cc1 | ED50 | mg/kg | = | 12.5
Cl.Nc1ccc([N+](=O)[O-])cc1C(=O)NCCCCN1CCN(c2nsc3ccccc23)CC1 | ED50 | mg/kg | = | 19.6
Cc1cccc(N)c1C(=O)NCCCCN1CCN(c2nsc3ccccc23)CC1.Cl | ED50 | mg/kg | > | 25
COc1c(Br)ccc(O)c1C(=O)NCCCCN1CCN(c2nsc3ccccc23)CC1.Cl | ED50 | mg/kg | = | 4.7
Cl.O=C(NCCCCN1CCN(c2nsc3ccccc23)CC1)c1ccc(Cl)cc1 | ED50 | mg/kg | = | 9.4
CCOC(=O)Nc1ccccc1C(=O)NCCCCN1CCN(c2nsc3ccccc23)CC1.Cl | ED50 | mg/kg | = | 1.8
CC(=O)Nc1ccc(C(=O)NCCCCN2CCN(c3nsc4ccccc34)CC2)cc1.Cl | ED50 | mg/kg | > | 25
CCc1cc(Cl)c(O)c(C(=O)NCCCCN2CCN(c3nsc4ccccc34)CC2)c1OC.Cl | ED50 | mg/kg | = | 25.5
Cl.O=C(NCCCCN1CCN(c2nsc3ccccc23)CC1)c1ccccc1[N+](=O)[O-] | ED50 | mg/kg | = | 25
Cl.O=C(NCCCCN1CCN(c2nsc3ccccc23)CC1)c1c(O)ccc(Br)c1O | ED50 | mg/kg | = | 6
CC(C)(C)OC(=O)Nc1cccc(C(=O)NCCCCN2CCN(c3nsc4ccccc34)CC2)c1.Cl | ED50 | mg/kg | > | 25

====

Attribute: IC50
- Target desc: 5-hydroxytryptamine receptor 1A (Rattus norvegicus)
- Sequence (P19327 whole entry): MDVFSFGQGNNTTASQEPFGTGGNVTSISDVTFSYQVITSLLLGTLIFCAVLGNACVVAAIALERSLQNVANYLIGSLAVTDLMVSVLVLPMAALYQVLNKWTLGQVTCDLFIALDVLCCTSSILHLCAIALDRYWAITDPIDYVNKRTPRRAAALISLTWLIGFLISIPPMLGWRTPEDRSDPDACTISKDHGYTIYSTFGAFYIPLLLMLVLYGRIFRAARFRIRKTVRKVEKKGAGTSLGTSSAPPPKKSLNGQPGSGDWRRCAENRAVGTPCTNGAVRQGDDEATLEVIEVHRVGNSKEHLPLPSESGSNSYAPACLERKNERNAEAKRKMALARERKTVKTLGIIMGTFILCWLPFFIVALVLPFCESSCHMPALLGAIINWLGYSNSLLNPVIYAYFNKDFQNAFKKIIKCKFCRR
Observation type: IC50 (µM)

Smiles entry | Units | Numeric result
Cl.Nc1cc(C(F)(F)F)ccc1C(=O)NCCCCN1CCN(c2nsc3ccccc23)CC1 | µM | 0.012
Cl.O=C(NCCCCN1CCN(c2nsc3ccccc23)CC1)c1ccc(/N=N/c2ccccc2)cc1 | µM | 0.54
COc1ccc(Br)c(O)c1C(=O)NCCCCN1CCN(c2nsc3ccccc23)CC1.Cl | µM | 0.026
COc1ccc(N)c(C(=O)NCCCCN2CCN(c3nsc4ccccc34)CC2)c1.Cl | µM | 0.01
Cc1cccc(N)c1C(=O)NCCCCN1CCN(c2nsc3ccccc23)CC1.Cl | µM | 0.064
Cl.Nc1c(F)cccc1C(=O)NCCCCN1CCN(c2nsc3ccccc23)CC1 | µM | 0.0015
